src = PubChem BioAssay (NCI)

# System: ACHN renal
# Protocol text: NCI tumour cell line growth inhibition, 48 h
Peptide text beside a SMILES is read from it. * marks the point of attachment. X34 = O=C(c1ccc(-c2ccc(Cl)cc2Cl)o1)*

{"Compound": "CCn1c(SCC(=O)Nc2cc(C(F)(F)F)ccc2Cl)nc2ccccc2c1=O", "TGI": "> 100 µM"}
{"Compound": "Cc1cn(C2CC(N=[N+]=[N-])C(CO)O2)c(=O)n(CCCCBr)c1=O (stereo not drawn)", "TGI": "> 100 µM"}
{"Compound": "CCCCC(=O)c1c(O)ccc2c(C)cc(=O)oc12", "TGI": "> 100 µM"}
{"Compound": "CCOC(=O)/C(=C\\c1cn(C(C)=O)c2ccccc12)P(C)(=O)OCC (stereo not drawn)", "TGI": "> 100 µM"}
{"Compound": "Nc1ncnc2c1ncn2[C@@H]1O[C@H](COP(=O)(O)OP(=O)(O)OC[C@H]2O[C@@H](OCCCO)[C@H](O)[C@@H]2O)[C@@H](O)[C@H]1O", "TGI": "> 100 µM"}
{"Compound": "N#CC1(C#N)[C@@H]2CCC=C(Sc3ccccc3)[C@@H]21", "TGI": "33.1 µM"}
{"Compound": "CC(C)c1cccc(C(C)C)c1NC(=O)C(=O)C1CCC2=C(Sc3ccccc3N2)C1=O (stereo not drawn)", "TGI": "> 100 µM"}
{"Compound": "CN(C)c1ccc(C2CC(=O)CC(c3ccc(N(C)C)cc3)C23C(=O)NC(=S)NC3=O)cc1 (stereo not drawn)", "TGI": "> 100 µM"}
{"Compound": "Cc1nc2ccccc2c(/C=C/c2ccccc2)c1C(=O)/C=C/c1ccc(C(F)(F)F)cc1", "TGI": "2.75 µM"}
{"Compound": "O=C(Nc1n[nH]c2nc(-c3ccc(O)cc3)c(Br)cc12)C1CC1", "TGI": "> 21.8 µM"}
{"Compound": "N#CC(C(=O)CCC(=O)Nc1cccc(C(F)(F)F)c1)c1ccccc1 (stereo not drawn)", "TGI": "> 100 µM"}
{"Compound": "COc1cc2c3c(n(CCCn4cncn4)c(=O)c2cc1OC)-c1cc2c(cc1C3=O)OCO2", "TGI": "2.56 µM"}
{"Compound": "Cc1ccc2[nH]c(C(=O)NN3C(=O)C(C)SC34CCC(C)CC4)c(-c3ccccc3)c2c1 (stereo not drawn)", "TGI": "44.2 µM"}
{"Compound": "COc1cc2c(/C=C3/C(=O)Nc4ccc(O)cc43)c(Cl)n(Cc3cc(OC)c(OC)c(OC)c3)c2cc1C", "TGI": "> 100 µM"}
{"Compound": "CC[C@@]1(O)C[C@H](OC2CC(N(C)C)C(OC3CC(O)C(OC4CCC(=O)C(C)O4)C(C)O3)C(C)O2)c2c(cc3c(c2O)C(=O)c2c(O)cccc2C3=O)C1C(=O)OC (stereo partly drawn)", "TGI": "2.15 µM"}
{"Compound": "COC(=O)C(CC(C)C)NC(=O)C(Cc1ccccc1)NC(=O)C1CCCN1C(=O)C(CO)NC(=O)c1ccc(-c2ccc(Cl)cc2Cl)o1 (stereo not drawn) (X34-SPFL-OMe; configuration not given here)", "TGI": "> 100 µM"}
{"Compound": "O=C(O)CN1C(=O)CN=C(c2ccccn2)c2cc(Cl)ccc21", "TGI": "> 100 µM"}
{"Compound": "O=C(Nc1ccccc1Cl)c1ccc(NC2=C(Cl)C(=O)N(C3CCCCC3)C2=O)cc1", "TGI": "30.4 µM"}
